Where do the numbers come from? From patent US7230132B2.

# System: TC28 cells
# MEASUREMENT_NOTES: GAG release from TC28 chondrocytes in polyHEME plates (DMB dye binding assay)
# Assay type: cell-based
# CONDITIONS_USED: approximate; prevention of GAG release; SIN-1 challenge 10 μM; polyHEME plates, 1 h pretreatment, 72 h; read-out: EC50 GAG Release, trigger Sin-1
pEC50: −log10 of the molar value.

COMPOUND_STRUCTURE: Cc1cc(O)ccc1NC(N)=NC#N
pEC50: ~7.00

----------
# System: TC28 cells
# MEASUREMENT_NOTES: Collagen synthesis (3H proline incorporation)
# Assay type: cell-based
# CONDITIONS_USED: approximate; prevention of inhibition of collagen synthesis; SIN-1 challenge 10 μM; polyHEME plates, 1 h pretreatment, 72 h; read-out: EC50 Collagen, trigger Sin-1
pEC50: −log10 of the molar value.

COMPOUND_STRUCTURE: Cc1cc(O)ccc1NC(N)=NC#N
pEC50: ~6.00
